- System: NQO1 specific enzyme activity in BEAS-2B cells (marker for NRF2 activation)
- Method: BEAS-2B NQO1 MTT Assay
- Assay type: cell-based
- Applied Conditions: Homo sapiens, BEAS-2B, 48 h, NQO1 specific activity induction, 48 hours with compound
pEC50: −log10 of the molar value.
Quantity: pEC50

- Compound: "CC[C@@H]1CN(Cc2cc(C(OCc3cn(CCOC)nn3)C(C)(C)C(=O)O)ccc2C)S(=O)(=O)c2ccccc2O1 (some centres unmarked)"
  Quantity: "pEC50"
  Reported Result: "> 9.00"
- Compound: "Cc1ccc(C(OCc2cn(CCOCCN=[N+]=[N-])nn2)C(C)(C)C(=O)O)cc1CN1C[C@@H](C)Oc2ccccc2S1(=O)=O (single isomer, unassigned)"
  Quantity: "pEC50"
  Reported Result: "8.00 to 9.00"
- Compound: "CCc1cn(Cc2cccc(Cn3cc(COC(c4ccc(C)c(CN5C[C@@H](C)Oc6ccccc6S5(=O)=O)c4)C(C)(C)C(=O)O)nn3)c2)nn1 (some centres unmarked)"
  Quantity: "pEC50"
  Reported Result: "7.00 to 8.00"

Task: Checklist item: pEC50 tested on NQO1 specific enzyme activity in BEAS-2B cells (marker for NRF2 activation), entry Cc1ccc(C(OCc2cn(CC3CCCN(C(=O)OC(C)(C)C)C3)nn2)C(C)(C)C(=O)O)cc1CN1C[C@@H](C)Oc2ccccc2S1(=O)=O (some centres unmarked) , value?
Output: 8.00 to 9.00

Task: Checklist item: pEC50 tested on NQO1 specific enzyme activity in BEAS-2B cells (marker for NRF2 activation), entry CCCC(=O)N1CCC(Cn2cc(COC(c3ccc(C)c(CN4C[C@@H](C)Oc5ccccc5S4(=O)=O)c3)C(C)(C)C(=O)O)nn2)CC1 (some centres unmarked) , value?
Output: 7.00 to 8.00
